# TARGET_OF_ASSAY: S1P1 (Homo sapiens, UniProt P21453)
# METHOD_NOTES: Tango β-arrestin Recruitment Assay in HEK293 cells (Assay 2a)
# Assay type: cell-based
# Set-up: linker with TEV protease (N1a) cleavage site (C); host or cells: HEK293, transiently transfected
# CONDITION_CONTEXT: Tango β-arrestin Recruitment Assay, read-out: Assay 2a EC50
# Sequence (P21453 whole entry): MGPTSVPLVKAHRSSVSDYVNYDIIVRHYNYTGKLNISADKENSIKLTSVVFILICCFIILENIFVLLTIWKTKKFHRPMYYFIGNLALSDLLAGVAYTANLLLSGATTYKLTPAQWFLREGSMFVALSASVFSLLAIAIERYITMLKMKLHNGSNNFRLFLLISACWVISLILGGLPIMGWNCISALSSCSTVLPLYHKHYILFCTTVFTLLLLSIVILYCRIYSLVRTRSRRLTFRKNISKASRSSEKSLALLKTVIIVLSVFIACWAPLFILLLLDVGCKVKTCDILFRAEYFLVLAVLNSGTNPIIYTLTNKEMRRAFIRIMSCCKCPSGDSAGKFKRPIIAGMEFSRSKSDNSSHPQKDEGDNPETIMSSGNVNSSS
# Sequence (P32121 whole entry partner): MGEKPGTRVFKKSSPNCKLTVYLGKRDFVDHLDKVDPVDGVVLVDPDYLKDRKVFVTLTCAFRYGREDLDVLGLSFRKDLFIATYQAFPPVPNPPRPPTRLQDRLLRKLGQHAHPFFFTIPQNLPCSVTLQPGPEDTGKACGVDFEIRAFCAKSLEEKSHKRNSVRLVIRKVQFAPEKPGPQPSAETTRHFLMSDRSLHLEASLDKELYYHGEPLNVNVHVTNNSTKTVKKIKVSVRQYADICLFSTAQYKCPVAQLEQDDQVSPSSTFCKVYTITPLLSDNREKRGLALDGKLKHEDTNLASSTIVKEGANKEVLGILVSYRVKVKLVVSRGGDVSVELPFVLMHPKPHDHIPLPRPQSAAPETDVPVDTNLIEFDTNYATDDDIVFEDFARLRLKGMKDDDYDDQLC
ATTRIBUTE_MEASURED: EC50

Ask: Please give the measured EC50 for this compound: N#CC(CC(=O)O)c1ccc(-c2noc(-c3cn4cc(C(F)(F)F)cc(Cl)c4n3)n2)c(Cl)c1 (stereo not shown)
Result: 100 to 500 nM

Ask: Looking for the measured EC50 of OCC(O)COc1cc(Cl)c(-c2noc(-c3cn4cc(I)cc(Cl)c4n3)n2)cc1Cl (stereo not shown) , can you help?
Result: ≤ 100 nM

Ask: Entry under review: "O=C(O)CCc1cc(Cl)c(-c2noc(-c3cn4cc(I)cc(Cl)c4n3)n2)cc1F" . Reported EC50?
Result: ≤ 100 nM

Ask: May I ask what EC50 has been recorded for Cc1cc(C2CC2C(=O)O)c(F)cc1-c1noc(-c2cn3cc(C(F)(F)F)cc(Cl)c3n2)n1 (stereo not shown) ?
Result: ≤ 100 nM

----------
compounds and their reported EC50
# TARGET_OF_ASSAY: UniProt P21453
# METHOD_NOTES: CNG cAMP Assay (Assay 1)
# Format: cell-based
# Parameters: host or cells: HEK293 cells expressing the CNG channel
# CONDITION_CONTEXT: read-out: Assay 1 EC50
# Sequence (P21453 whole entry): as the sequence (P21453 whole entry) above

Solved cases below.
In [3]: df
Out[3]:
                                   compound  attribute_measured             val
0  O=C(O)CCc1ccc(-c2nnc(-c3cn4cc(C(F)(F)F)cc(Cl)c4n3)s2)c(Cl)c1                EC50        ≤ 100 nM
1  O=C(O)Cn1ccc2c(-c3noc(-c4cn5cc(C(F)(F)F)cc(Cl)c5n4)n3)cccc21                EC50  500 to 1000 nM
2  O=C(O)CCc1cc(Cl)c(-c2nc(-c3cn4cc(C(F)(F)F)cc(Cl)c4n3)no2)cc1F                EC50        ≤ 100 nM

Ask: For the compound shown here, "O=C(O)CCc1cc(Cl)c(-c2noc(-c3cn4cc(I)cc(Cl)c4n3)n2)cc1F" , give the reported EC50.
Result: ≤ 100 nM

Ask: Param item = "Oc1cc(Cl)c(-c2noc(-c3cn4cc(C(F)(F)F)cc(Br)c4n3)n2)cc1Cl" ; retrieve measured EC50.
Result: 100 to 500 nM

Ask: Fill in the blank: the reported EC50 of CC(CO)Oc1c(F)cc(-c2noc(-c3cn4cc(C(F)(F)F)cc(Cl)c4n3)n2)cc1Cl (stereo not shown) is ____.
Result: ≤ 100 nM

Ask: Quick one: EC50 of OCC(O)COc1cc(Cl)c(-c2noc(-c3cn4cc(C(F)(F)F)cc(Cl)c4n3)n2)cc1Cl (stereo not shown) ?
Result: ≤ 100 nM

Ask: Quick one: EC50 of "O=C(O)CCc1cc(Cl)c(-c2nnc(-c3cn4cc(C(F)(F)F)cc(Br)c4n3)s2)cc1F" ?
Result: ≤ 100 nM

----------
Parameter: pEC50. Scope: all listed entries.
# TARGET_OF_ASSAY: S1P1 (Homo sapiens, UniProt P21453)
# METHOD_NOTES: CNG cAMP Assay (Assay 1)
# Assay type: cell-based
# Design: host or cells: HEK293 cells expressing the CNG channel
# CONDITION_CONTEXT: relative EC50 was measured (footnote 1), read-out: Assay 1 Relative EC50
# Protocol: Frozen HEK293 cells expressing the CNG channel and S1P1 (BD Biosciences, San Jose, Calif.) were thawed and plated into the wells of a black, clear bottom, 384-well CellBind plate (Corning, Corning, N.Y.) at 14,000 cells per well. […] Test compounds were tested at maximum concentrations of 10 μM. […] The T90/T0 ratio was determined for each concentration of the test compounds. The percent agonist activity was determined as [(test compound−DMSO alone control)/(NECA alone control−DMSO alone control)*100]. […]
pEC50: −log10 of the molar value.

Ask: Param readout = pEC50; param system = S1P1 (Homo sapiens, UniProt P21453); param query = "Cc1cc(Br)c2nc(-c3nc(-c4ccc(NS(C)(=O)=O)cc4Cl)no3)cn2c1" ; response: value
Result: 5.30 to 6.00

Ask: # query: pEC50 | item "CS(=O)(=O)Nc1ccc(-c2noc(-c3cn4cc(C#N)cc(Br)c4n3)n2)c(Cl)c1" | system: S1P1 (Homo sapiens, UniProt P21453)
Result: 5.30 to 6.00

Ask: // lookup pEC50 | system=S1P1 (Homo sapiens, UniProt P21453) | key= "C=CCOc1c(C)cc(-c2noc(-c3cn4cc(C(F)(F)F)cc(Cl)c4n3)n2)cc1C"
Result: 5.00 to 5.30

Ask: Fill in the recorded pEC50 for this molecule, with S1P1 (Homo sapiens, UniProt P21453) as test system: "CCN(CC)CCS(=O)(=O)Nc1ccc(-c2noc(-c3cn4cc(C(F)(F)F)cc(Cl)c4n3)n2)c(Cl)c1"
Result: 5.30 to 6.00

----------
# TARGET_OF_ASSAY: S1P1 (Homo sapiens)
# METHOD_NOTES: Tango β-arrestin Recruitment Assay in U2OS cells (Assay 2b)
# Assay type: cell-based
# Parameters: linker with TEV protease (N1a) cleavage site (C)
# CONDITION_CONTEXT: Tango β-arrestin, footnote 1: Relative EC50 was measured, read-out: Assay 2b Relative EC50
ATTRIBUTE_MEASURED: EC50

Ask: Param readout = EC50; param system = S1P1 (Homo sapiens); param query = NC(CO)COc1cc(Cl)c(-c2nnc(-c3cn4cc(C(F)(F)F)cc(Cl)c4n3)o2)cc1Cl (stereo not shown) ; response: value
Result: 100 to 500 nM

----------
# TARGET_OF_ASSAY: S1P1 (Homo sapiens)
# METHOD_NOTES: CNG cAMP Assay (Assay 1)
# Format: cell-based
# Design: host or cells: HEK293 cells expressing the CNG channel
# CONDITION_CONTEXT: read-out: Assay 1 EC50
Reported EC50 values are given for each entry in this list.

>>> df
                        structure_as_smiles            val
0  O=C(O)CCc1cc(Cl)c(-c2noc(-c3cn4cc(C(F)(F)F)cc(Cl)c4n3)n2)cc1F       ≤ 100 nM
1  FC(F)(F)c1cc(Cl)c2nc(-c3nc(-c4ccc5[nH]cnc5c4)no3)cn2c1  100 to 500 nM
2  Fc1cccc(Cl)c1-c1noc(-c2cn3cc(C(F)(F)F)cc(Br)c3n2)n1  100 to 500 nM

Let us move to another entry and its EC50.
Ask: EC50 of "O=C(O)CCc1cc(F)c(-c2noc(-c3cn4cc(C(F)(F)F)cc(Cl)c4n3)n2)cc1F" on S1P1 (Homo sapiens)?
Result: ≤ 100 nM

----------
Reported EC50 values for a set of compounds
# TARGET_OF_ASSAY: UniProt:P21453
# METHOD_NOTES: Tango β-arrestin Recruitment Assay in HEK293 cells (Assay 2a)
# Format: cell-based
# Set-up: linker with TEV protease (N1a) cleavage site (C); host or cells: HEK293, transiently transfected
# CONDITION_CONTEXT: Tango β-arrestin Recruitment Assay, read-out: Assay 2a EC50

Consider the following illustrative entries.
>>> print(df.to_string())
                                   compound            val
0  OCC(O)COc1cc(Cl)c(-c2noc(-c3cn4cc(C(F)(F)F)cc(Cl)c4n3)n2)cc1Cl (stereo not shown)       ≤ 0.1 µM
1  O=C(O)C1CC1c1cc(Cl)c(-c2noc(-c3cn4cc(C(F)(F)F)cc(Br)c4n3)n2)cc1F (stereo not shown)       ≤ 0.1 µM
2  CC(CO)Oc1cc(Cl)c(-c2noc(-c3cn4cc(C(F)(F)F)cc(Cl)c4n3)n2)cc1F (stereo not shown)       ≤ 0.1 µM
3  Fc1ccc(-c2noc(-c3cn4cc(C(F)(F)F)cc(Cl)c4n3)n2)c(Cl)c1    0.5 to 1 µM
4  CC(CC(=O)O)c1ccc(-c2noc(-c3cn4cc(C(F)(F)F)cc(Br)c4n3)n2)c(Cl)c1 (stereo not shown)  0.1 to 0.5 µM

Ask: Param item = "OC[C@@H](O)COc1cc(Cl)c(-c2noc(-c3cn4cc(C(F)(F)F)cc(Cl)c4n3)n2)cc1Cl" ; retrieve measured EC50.
Result: ≤ 0.1 µM

Ask: GET /values?readout=EC50&item= "O=C(O)CCc1c(Cl)cc(-c2nnc(-c3cn4cc(C(F)(F)F)cc(Cl)c4n3)s2)cc1Cl"
Result: ≤ 0.1 µM

Ask: Data request, read-out EC50, for OC(CF)COc1cc(Cl)c(-c2noc(-c3cn4cc(C(F)(F)F)cc(Cl)c4n3)n2)cc1Cl (stereo not shown)
Result: ≤ 0.1 µM

Ask: Could you share which EC50 value was measured for "O=C(O)CCc1cc(Cl)c(-c2noc(-c3cn4cc(C(F)(F)F)cc(Cl)c4n3)n2)cc1F" ?
Result: ≤ 0.1 µM

Ask: For "CC(C)(O)COc1cc(Cl)c(-c2noc(-c3cn4cc(C(F)(F)F)cc(Cl)c4n3)n2)cc1Cl" , what is its reported EC50?
Result: ≤ 0.1 µM

Ask: What value of EC50 has been reported for the following compound? Cc1cc(C(C)CC(=O)O)ccc1-c1noc(-c2cn3cc(C(F)(F)F)cc(Br)c3n2)n1 (stereo not shown)
Result: 0.1 to 0.5 µM

Ask: // returns reported EC50 for input "Cc1cc(CCC(=O)O)c(Cl)cc1-c1noc(-c2cn3cc(C(F)(F)F)cc(Br)c3n2)n1"
Result: ≤ 0.1 µM

Ask: Recorded EC50 for CC(CO)Oc1ccc(-c2noc(-c3cn4cc(C(F)(F)F)cc(Cl)c4n3)n2)c(Cl)c1 (stereo not shown) , please?
Result: ≤ 0.1 µM

Ask: Form field: reported EC50 of Cc1cc(C(C)CC(=O)O)ccc1-c1noc(-c2cn3cc(C(F)(F)F)cc(Cl)c3n2)n1 (stereo not shown)
Result: 0.1 to 0.5 µM

Ask: Which EC50 reading was recorded for the compound "OCCOc1ccc(-c2nnc(-c3cn4cc(C(F)(F)F)cc(Cl)c4n3)s2)c(Cl)c1" ?
Result: 0.1 to 0.5 µM

Ask: Could you share which EC50 value was measured for "O=C(O)CCc1ccc(-c2noc(-c3cn4cc(C(F)(F)F)cc(Cl)c4n3)n2)c(Cl)c1" ?
Result: ≤ 0.1 µM
